The measurements presented in this section are drawn from ChEMBL document CHEMBL1201862.

# Test system: HOP-92
# assay_name: NCI tumour cell line growth inhibition, 48 h
Calls of active or inactive are those of the source. No stated cut-off is given here; in the data, active = GI50 up to about 1.1 µM and inactive = higher.
parameter: GI50

The examples below pair each entry with its known result.
molecule=CCOC(=O)c1ccc(O)cc1 obs_value="> 100 µM (inactive)"
molecule=N#C/C(=C\c1ccc(O)cc1)C(N)=O obs_value="> 100 µM (inactive)"
molecule=CCOC(=O)C(=O)Nc1cc(Cl)ccc1Cl obs_value="> 100 µM (inactive)"
molecule=COc1ccc(C(=O)Oc2c(C#N)sc3c2c(=O)n(-c2ccccc2)c(=S)n3-c2ccccc2)cc1 obs_value="23.6 µM (inactive)"
molecule="CC1CN1c1c(C(=O)/C=C/c2ccc(Cl)cc2)c(-c2ccccc2)nn(C)c1=O (stereo unspecified)" obs_value="> 10 µM (inactive)"

For each of the items listed, what is its GI50?
1. O=C(O)CNC(=O)c1ccc2cc(C(=O)N3CC(CCl)c4ccc([N+](=O)[O-])cc43)[nH]c2c1 (stereo unspecified)
2. CN1CC=C(c2c(N)nc(N)[nH]c2=O)CC1
3. CC1(C)CCCOc2cccc(c2)OCCCC(C)(C)C1=O

1: > 100 µM (inactive); 2: > 100 µM (inactive); 3: 23 µM (inactive)

For each of the items listed, what is its GI50?
1. Cc1ccc(C)c2c1n1c(=O)n(C)c(=O)n21
2. O=C(O)Cn1ccnc1[N+](=O)[O-]

["> 100 µM (inactive)", "> 100 µM (inactive)"]

Tell me its GI50 given NC(=O)c1cc2ccc(O)cc2o/c1=N/NC(=O)c1ccccc1 as the entry. > 100 µM (inactive)
